Target: Phosphatidylinositol 4,5-bisphosphate 3-kinase catalytic subunit gamma isoform (Homo sapiens)
Sequence (P48736 whole entry, canonical isoform): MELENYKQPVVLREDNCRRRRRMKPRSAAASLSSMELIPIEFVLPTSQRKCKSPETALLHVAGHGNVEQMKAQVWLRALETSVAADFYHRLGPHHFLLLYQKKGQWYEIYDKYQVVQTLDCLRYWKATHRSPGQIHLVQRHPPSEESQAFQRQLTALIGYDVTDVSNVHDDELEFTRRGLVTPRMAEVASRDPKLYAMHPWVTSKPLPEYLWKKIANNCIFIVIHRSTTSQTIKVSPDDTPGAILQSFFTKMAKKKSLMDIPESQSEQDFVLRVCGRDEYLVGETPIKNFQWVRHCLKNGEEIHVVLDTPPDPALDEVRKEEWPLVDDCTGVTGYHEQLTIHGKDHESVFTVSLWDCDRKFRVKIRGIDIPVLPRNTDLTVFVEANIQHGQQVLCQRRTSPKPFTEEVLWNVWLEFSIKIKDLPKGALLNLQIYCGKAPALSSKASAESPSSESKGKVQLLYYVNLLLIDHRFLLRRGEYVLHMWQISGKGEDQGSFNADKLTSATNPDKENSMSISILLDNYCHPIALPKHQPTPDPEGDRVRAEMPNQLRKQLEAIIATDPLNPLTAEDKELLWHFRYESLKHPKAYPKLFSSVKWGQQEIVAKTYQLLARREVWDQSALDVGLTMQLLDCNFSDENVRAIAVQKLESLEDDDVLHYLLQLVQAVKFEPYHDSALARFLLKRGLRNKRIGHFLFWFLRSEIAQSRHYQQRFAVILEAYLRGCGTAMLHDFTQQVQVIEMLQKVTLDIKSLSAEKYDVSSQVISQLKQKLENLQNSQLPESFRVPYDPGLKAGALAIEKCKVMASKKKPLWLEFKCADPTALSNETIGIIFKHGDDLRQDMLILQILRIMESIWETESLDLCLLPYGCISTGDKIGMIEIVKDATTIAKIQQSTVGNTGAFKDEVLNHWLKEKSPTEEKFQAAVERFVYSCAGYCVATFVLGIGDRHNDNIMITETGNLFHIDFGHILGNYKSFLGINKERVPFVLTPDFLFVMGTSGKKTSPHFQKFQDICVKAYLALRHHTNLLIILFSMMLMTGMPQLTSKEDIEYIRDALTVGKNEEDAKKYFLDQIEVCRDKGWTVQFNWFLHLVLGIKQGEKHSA
Assay: Inhibition of human PI3K 110gamma by fluorescence-based immunoassay
pIC50: −log10 of the molar value.
parameter.measured: pIC50

Worked examples, 3 molecules total:
COc1ccc(C(=O)N2CCN(c3cc4c(cc3F)c(=O)c(C(=O)O)cn4C3CC3)CC2)cn1 6.55
CCn1cc(C(=O)O)c(=O)c2cc(F)c(N3CCN(C(=O)c4ccc(OC)nc4)CC3)cc21 6.55
O=C(O)c1cn(C2CC2)c2cc(N3CCN(C(=O)c4cc(Br)ccc4O)CC3)c(F)cc2c1=O 6.77

[1] CCn1cc(C(=O)O)c(=O)c2cc(F)c(N3CCN(C(=O)c4cccnc4Cl)CC3)cc21
[2] CCn1cc(C(=O)O)c(=O)c2cc(F)c(N3CCN(C(=O)c4cc(Cl)ccc4O)CC3)cc21
Which record would sort first by descending pIC50, 1 or 2 ? Refer to your chosen item by its label in the answer.
2
